Assay overview: in vitro
Settings: human, HEK293 cells
Description: Growth inhibition of human HEK293 cells after 48 hrs by MTT assay
Observed property: GI50 at 48 h (µM)
Give bare numbers, in µM.

Smiles	Unit descriptor	GI50 at 48 h
N[C@@H]1C[C@H]1c1cccc(OCC[C@H](NC(=O)c2ccccc2)C(=O)NCc2ccccc2)c1	µM	25

Let us move to another entry and its GI50 at 48 h.
Task: What value of measured GI50 at 48 h is listed for N[C@H]1C[C@@H]1c1cccc(OCC[C@H](NC(=O)c2ccccc2)C(=O)NCc2ccccc2)c1 ?
Output: 17
